// data source = the supplement of paper PMC9112550

Each record here notes measured shrunken log2 fold change.
- Test system: Escherichia coli TOP10
- run_description: shrunken log2 fold change of peptide-encoding DNA abundance (4.5 h post-induction vs induction); higher = less antimicrobial activity (less host growth inhibition)
- particulars: time post-induction: 4.5 h; library: site-saturation at positions 5, 18, 19, 20

input_sequence	tested_target	shrunken log2 fold change
RRIRFRPPRLPRPRPRPWQLPRP	Escherichia coli TOP10	-0.234
RRIRGRPPRLPRPRPRPICAPRP	Escherichia coli TOP10	1.2
RRIRARPPRLPRPRPRPQQRPRP	Escherichia coli TOP10	0.199
RRIRDRPPRLPRPRPRPTTTPRP	Escherichia coli TOP10	0.654
RRIRSRPPRLPRPRPRPIETPRP	Escherichia coli TOP10	-0.29
RRIRHRPPRLPRPRPRPEPDPRP	Escherichia coli TOP10	0.257
RRIRYRPPRLPRPRPRPVAQPRP	Escherichia coli TOP10	0.128
RRIRRRPPRLPRPRPRPSNPPRP	Escherichia coli TOP10	-0.203
RRIRDRPPRLPRPRPRPMTWPRP	Escherichia coli TOP10	0.000751
RRIRVRPPRLPRPRPRPAVTPRP	Escherichia coli TOP10	-0.269
RRIRKRPPRLPRPRPRPMLVPRP	Escherichia coli TOP10	-0.0603
RRIRCRPPRLPRPRPRPWTYPRP	Escherichia coli TOP10	-0.015
RRIRQRPPRLPRPRPRPQPGPRP	Escherichia coli TOP10	0.0446
RRIRDRPPRLPRPRPRPEPGPRP	Escherichia coli TOP10	0.707
RRIRWRPPRLPRPRPRPANRPRP	Escherichia coli TOP10	0.0566
RRIRGRPPRLPRPRPRPKIWPRP	Escherichia coli TOP10	0.64
RRIRFRPPRLPRPRPRPTIEPRP	Escherichia coli TOP10	-0.037
RRIRSRPPRLPRPRPRPHCGPRP	Escherichia coli TOP10	-0.0953
RRIRNRPPRLPRPRPRPCREPRP	Escherichia coli TOP10	-0.109
RRIRRRPPRLPRPRPRPFNPPRP	Escherichia coli TOP10	-0.277
RRIRLRPPRLPRPRPRPHTLPRP	Escherichia coli TOP10	-0.224
RRIRSRPPRLPRPRPRPMQTPRP	Escherichia coli TOP10	0.291
RRIRKRPPRLPRPRPRPRWHPRP	Escherichia coli TOP10	0.0132
RRIRCRPPRLPRPRPRPKYCPRP	Escherichia coli TOP10	-0.264
RRIRQRPPRLPRPRPRPPQFPRP	Escherichia coli TOP10	0.076
RRIRSRPPRLPRPRPRPMFRPRP	Escherichia coli TOP10	-0.338
RRIRSRPPRLPRPRPRPRVNPRP	Escherichia coli TOP10	-0.189
RRIRYRPPRLPRPRPRPMARPRP	Escherichia coli TOP10	-0.0425
RRIRTRPPRLPRPRPRPTHAPRP	Escherichia coli TOP10	4.04
RRIRMRPPRLPRPRPRPFMNPRP	Escherichia coli TOP10	-0.196
RRIRYRPPRLPRPRPRPHCHPRP	Escherichia coli TOP10	-0.735
RRIRKRPPRLPRPRPRPHYSPRP	Escherichia coli TOP10	-0.257

---

- Tested on: Escherichia coli TOP10
- run_description: shrunken log2 fold change of peptide-encoding DNA abundance (4.5 h post-induction vs induction); higher = less antimicrobial activity (less host growth inhibition)
- particulars: time post-induction: 4.5 h; library: site-saturation at positions 5, 18, 19, 20

input_sequence	shrunken log2 fold change
RRIRERPPRLPRPRPRPACYPRP	-0.308
RRIRDRPPRLPRPRPRPRMQPRP	-0.196
RRIRCRPPRLPRPRPRPNYRPRP	-0.077
RRIRRRPPRLPRPRPRPGKWPRP	0.152
RRIRKRPPRLPRPRPRPYLMPRP	-0.0192
RRIRARPPRLPRPRPRPEFYPRP	0.329
RRIRPRPPRLPRPRPRPKMDPRP	0.0116
RRIRVRPPRLPRPRPRPTNNPRP	-0.398

---

- Test system: Escherichia coli TOP10
- run_description: shrunken log2 fold change of peptide-encoding DNA abundance (4.5 h post-induction vs induction); higher = less antimicrobial activity (less host growth inhibition)
- particulars: time post-induction: 4.5 h; library: site-saturation at positions 5, 18, 19, 20
Give class 1 when the value for shrunken log2 fold change is at least -0.08. Give class 0 when it is less.

input_sequence	tested_target	assigned_label
RRIRFRPPRLPRPRPRPVVYPRP	Escherichia coli TOP10	class 0
RRIRWRPPRLPRPRPRPHETPRP	Escherichia coli TOP10	class 1
RRIRARPPRLPRPRPRPMCFPRP	Escherichia coli TOP10	class 1
RRIRFRPPRLPRPRPRPKVSPRP	Escherichia coli TOP10	class 1
RRIRIRPPRLPRPRPRPYCEPRP	Escherichia coli TOP10	class 0
RRIRLRPPRLPRPRPRPFSEPRP	Escherichia coli TOP10	class 0
RRIRSRPPRLPRPRPRPVLDPRP	Escherichia coli TOP10	class 1
RRIRTRPPRLPRPRPRPAYHPRP	Escherichia coli TOP10	class 0
RRIRARPPRLPRPRPRPTFEPRP	Escherichia coli TOP10	class 1
RRIRNRPPRLPRPRPRPNCFPRP	Escherichia coli TOP10	class 1
RRIRYRPPRLPRPRPRPVINPRP	Escherichia coli TOP10	class 0
RRIRSRPPRLPRPRPRPNKMPRP	Escherichia coli TOP10	class 1
RRIRARPPRLPRPRPRPETKPRP	Escherichia coli TOP10	class 1
RRIRSRPPRLPRPRPRPLYLPRP	Escherichia coli TOP10	class 0
RRIRIRPPRLPRPRPRPQTNPRP	Escherichia coli TOP10	class 0

---

- System: Escherichia coli TOP10;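 also: peptides expressed intracellularly from a pBAD plasmid library in pooled LB shake-flask culture, induced with 0.3% L-arabinose, DNA abundance read by NGS, three biological replicates, DESeq2 with apeglm shrinkage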
- run_description: shrunken log2 fold change of peptide-encoding DNA abundance (4.5 h post-induction vs induction); higher = less antimicrobial activity (less host growth inhibition)
- particulars: time post-induction: 4.5 h; library: site-saturation at positions 5, 18, 19, 20
Each record here notes measured shrunken log2 fold change.
measured_metric: shrunken log2 fold change

input_sequence	measured_metric	observed_result
RRIRERPPRLPRPRPRPTRVPRP	shrunken log2 fold change	-0.0943
RRIRKRPPRLPRPRPRPAWHPRP	shrunken log2 fold change	0.378
RRIRERPPRLPRPRPRPARIPRP	shrunken log2 fold change	-0.246
RRIRLRPPRLPRPRPRPPVIPRP	shrunken log2 fold change	-0.0477
RRIRARPPRLPRPRPRPAWQPRP	shrunken log2 fold change	0.626
RRIRSRPPRLPRPRPRPWSMPRP	shrunken log2 fold change	-0.176
RRIRWRPPRLPRPRPRPCKDPRP	shrunken log2 fold change	-0.381
RRIRIRPPRLPRPRPRPWQCPRP	shrunken log2 fold change	0.034
RRIRHRPPRLPRPRPRPGDGPRP	shrunken log2 fold change	0.209
RRIRWRPPRLPRPRPRPQCPPRP	shrunken log2 fold change	-0.357
RRIRTRPPRLPRPRPRPHREPRP	shrunken log2 fold change	-0.075
RRIRFRPPRLPRPRPRPDRMPRP	shrunken log2 fold change	-0.00758
RRIRNRPPRLPRPRPRPGSNPRP	shrunken log2 fold change	-0.0081
RRIRMRPPRLPRPRPRPGYDPRP	shrunken log2 fold change	0.0865
RRIRQRPPRLPRPRPRPMPEPRP	shrunken log2 fold change	-0.237
RRIRMRPPRLPRPRPRPSAVPRP	shrunken log2 fold change	1.16
RRIRLRPPRLPRPRPRPSEPPRP	shrunken log2 fold change	-0.114
RRIRLRPPRLPRPRPRPMDHPRP	shrunken log2 fold change	-0.00264
RRIRYRPPRLPRPRPRPWWHPRP	shrunken log2 fold change	-0.757
RRIRLRPPRLPRPRPRPMKGPRP	shrunken log2 fold change	0.0527
RRIRVRPPRLPRPRPRPSNKPRP	shrunken log2 fold change	-0.751
RRIRTRPPRLPRPRPRPEGFPRP	shrunken log2 fold change	-0.041
RRIRVRPPRLPRPRPRPWWVPRP	shrunken log2 fold change	0.00127
RRIRHRPPRLPRPRPRPPWKPRP	shrunken log2 fold change	0.174
RRIRKRPPRLPRPRPRPWHFPRP	shrunken log2 fold change	0.169
RRIRWRPPRLPRPRPRPRFCPRP	shrunken log2 fold change	0.234
RRIRIRPPRLPRPRPRPGQPPRP	shrunken log2 fold change	0.0462
RRIRARPPRLPRPRPRPDVRPRP	shrunken log2 fold change	0.0106
RRIRARPPRLPRPRPRPIHEPRP	shrunken log2 fold change	-0.0242
RRIRWRPPRLPRPRPRPNIDPRP	shrunken log2 fold change	-0.21
RRIRRRPPRLPRPRPRPNRLPRP	shrunken log2 fold change	0.523
RRIRFRPPRLPRPRPRPLTAPRP	shrunken log2 fold change	-0.0807
RRIRKRPPRLPRPRPRPWTGPRP	shrunken log2 fold change	-0.0587
RRIRQRPPRLPRPRPRPVMCPRP	shrunken log2 fold change	-0.119
RRIRKRPPRLPRPRPRPPLYPRP	shrunken log2 fold change	0.948
RRIRFRPPRLPRPRPRPFSEPRP	shrunken log2 fold change	-0.0573
RRIRQRPPRLPRPRPRPCPAPRP	shrunken log2 fold change	-0.00924
RRIRSRPPRLPRPRPRPVLVPRP	shrunken log2 fold change	0.242
RRIRRRPPRLPRPRPRPSTIPRP	shrunken log2 fold change	-0.121
RRIRWRPPRLPRPRPRPETMPRP	shrunken log2 fold change	0.569
RRIRQRPPRLPRPRPRPTPWPRP	shrunken log2 fold change	0.619
RRIRVRPPRLPRPRPRPPISPRP	shrunken log2 fold change	0.0369
RRIRCRPPRLPRPRPRPDHTPRP	shrunken log2 fold change	-0.699
RRIRTRPPRLPRPRPRPVLCPRP	shrunken log2 fold change	0.0726
RRIRMRPPRLPRPRPRPGIGPRP	shrunken log2 fold change	0.638
RRIRPRPPRLPRPRPRPLCEPRP	shrunken log2 fold change	0.0379
RRIRVRPPRLPRPRPRPGEIPRP	shrunken log2 fold change	0.0835
RRIRTRPPRLPRPRPRPFHAPRP	shrunken log2 fold change	-0.0296
RRIRNRPPRLPRPRPRPYPCPRP	shrunken log2 fold change	-0.00822
RRIRIRPPRLPRPRPRPDAEPRP	shrunken log2 fold change	0.874
RRIRMRPPRLPRPRPRPLGAPRP	shrunken log2 fold change	1.25
RRIRPRPPRLPRPRPRPQQAPRP	shrunken log2 fold change	0.106
RRIRRRPPRLPRPRPRPKPLPRP	shrunken log2 fold change	0.474
RRIRYRPPRLPRPRPRPHQEPRP	shrunken log2 fold change	-0.0108
RRIRSRPPRLPRPRPRPQGVPRP	shrunken log2 fold change	0.225
RRIRARPPRLPRPRPRPSSCPRP	shrunken log2 fold change	-0.0288
RRIRERPPRLPRPRPRPVSTPRP	shrunken log2 fold change	-0.199
RRIRARPPRLPRPRPRPEITPRP	shrunken log2 fold change	0.784
RRIRNRPPRLPRPRPRPPPFPRP	shrunken log2 fold change	0.47
RRIRKRPPRLPRPRPRPCPFPRP	shrunken log2 fold change	-0.223
RRIRWRPPRLPRPRPRPGTWPRP	shrunken log2 fold change	0.0354
RRIRTRPPRLPRPRPRPYNTPRP	shrunken log2 fold change	-0.737
RRIRYRPPRLPRPRPRPCPTPRP	shrunken log2 fold change	-0.0225
